Molecular target: T1, mouse FLT3 (mFlt3) (mouse (printed as mFlt3), UniProt Q00342 28-544, limits assumed)
T1 construct: Construct not described
T1 sequence (looked up): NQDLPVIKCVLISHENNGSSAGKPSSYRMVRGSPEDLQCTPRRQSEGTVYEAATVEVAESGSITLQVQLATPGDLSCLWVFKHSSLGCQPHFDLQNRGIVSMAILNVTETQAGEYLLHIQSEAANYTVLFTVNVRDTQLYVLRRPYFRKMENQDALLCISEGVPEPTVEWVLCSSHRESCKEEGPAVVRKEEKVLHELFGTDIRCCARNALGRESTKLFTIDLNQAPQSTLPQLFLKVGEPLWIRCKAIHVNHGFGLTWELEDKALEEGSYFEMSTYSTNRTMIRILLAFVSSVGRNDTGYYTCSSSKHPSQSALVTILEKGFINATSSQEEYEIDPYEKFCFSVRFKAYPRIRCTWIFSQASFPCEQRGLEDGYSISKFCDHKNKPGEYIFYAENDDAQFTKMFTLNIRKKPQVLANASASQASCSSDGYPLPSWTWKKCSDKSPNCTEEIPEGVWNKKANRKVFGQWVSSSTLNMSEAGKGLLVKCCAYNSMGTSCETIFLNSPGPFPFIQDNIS
Test: SPR, Table 6, IgG format, mFlt3 column; set-up for mFlt3 not described
quantity_kind: Kd
The answer consists of two parts: a number and, after it, its unit.

binder="P7F9 (IgG format) (antibody, V domains shown, IgG format, captured by anti-human Fc) VH: EVQLLESGGGLVQPGGSLRLSCAASGFTFSSYAMSWVRQAPGKGLEWVSAIGGSGGSTYYADSVKGRFTISRDNSKNTLYLQMNSLRAEDTAMYYCARDYYAFSDPAYGGMDVWGQGTLVTVSS VL: NFMLTQPHSVSESPGKTVTISCTRSSGSIASNYVQWYQQKPGQAPVLVVYDDSDRPSGIPERFSGSNSGNTATLTISRVEAGDEADYYCQVWDSSSDHWVFGGGTKLTVL" assay_value="13.8 nM"
binder="P5A3 (IgG format) (antibody, V domains shown, IgG format, captured by anti-human Fc) VH: QVQLVQSGAEVKKPGSSVKVSCKASGGTFSSYYIGWVRQAPGQGLEWMGGIIPWFGTANYAQKFQGRVTITADKSTNTAYMELSSLRSEDTAVYYCAADHHDSPSGYTSGGFDVWGQGTLVTVSS VL: QSALTQPASVSGSPGQSITISCTGTSSDVGGYNYVSWYQQHPGKAPKLMIYEVSKRPSGVPDRFSGSKSGNTASLTVSGLQAEDEADYYCSSYAGSNTVVFGGGTKLTVL" assay_value="19.3 nM"
binder="P4C7 (IgG format) (antibody, V domains shown, IgG format, captured by anti-human Fc) VH: QVQLVQSGAEVKKPGSSVKVSCKASGGTFSSYTISWVRQAPGQGLEWMGGIIPAFGIANYAQKFQGRVTITADKSTSTAYMELSSLRSEDTAVYYCAKGGSYSLDYFDIWGQGTLVTVSS VL: EIVLTQSPGTLSLSPGERATLSCRASQYVSASLLAWYQQKPGQAPRLLIYGASTRATGIPDRFSGSGSGTDFTLTISRLEPEDFAVYYCQQYARSSTFGQGTKVEIK" assay_value="402 nM"

The reported Kd of the binder P7H3 (IgG format) (antibody, V domains shown, IgG format, captured by anti-human Fc) VH: EVQLLESGGGLVQPGGSLRLSCAASGFTFSSYAMHWVRQAPGKGLEWVSAISGSGGSTYYADSVKGRFTISRDNSKNTLYLQMNSLRAEDTAVYYCARGTRWWWGDAFDHWGQGTLVTVSS VL: QSVLTQPPSVSVAPGKTARITCGGNNIGSKSVHWYQQKPGQAPVLVIYYDSDRPSGIPERFSGSNSGNTATLTISRVEAGDEADYYCQVWDSSTAWVFGGGTKLTVL was 0.9 nM
